# experiment notes: rat pharmacokinetic studies
# experimental parameters: rat, IV, 2 mg/kg; mean, n = 3
PEG = not defined here
outcome measure: MRT

substance="SEQ ID NO: 40: double glutamine analog PEGylated through amine linkage (Ac-WVTHQLAGLLSQSGGVVRK(PEG)NFVPTDVGPFAF-NH2; reading uncertain)" recorded_result="2.63 h"
substance="SEQ ID NO: 32: PEGylated R11Cit, R18Cit analog (product of SEQ ID NO:31) (WVTHXLAGLLSXSGGVVRKNFVPTDVGPFAF; PEGylated; citrulline at 11 and 18; CGRP peptide; MOD_RES (1)..(1): …ON; MISC_FEATURE (5)..(5): xaa=citrulline; MISC_FEATURE (12)..(12): xaa=citrulline; MISC_FEATURE (19)..(19): PEGylated; MOD_RES (31)..(31): AMIDATION)" recorded_result="4.12 h"
substance="SEQ ID NO: 15: 20 kDa PEG conjugate of SEQ ID NO:7 (reductive alkylation) (Ac-WVTHRLAGLLSRSGGVVRK(20 kDa PEG)NFVPTDVGPFAF-NH2)" recorded_result="1.10 h"
substance="SEQ ID NO: 26: PEGylated double homoarginine analog (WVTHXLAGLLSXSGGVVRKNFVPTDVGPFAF; PEGylated; homoarginine residues; CGRP peptide; MOD_RES (1)..(1): …ON; MISC_FEATURE (5)..(5): xaa=homoarginine; MISC_FEATURE (12)..(12): xaa=homoarginine; MISC_FEATURE (19)..(19): PEGylated; MOD_RES (31)..(31): AMIDATION)" recorded_result="1.01 h"
